Biological target: CCKA (Cavia porcellus)
Construct: The pancreatata were homogenised in 40 ml ice-cold HEPES buffer using a polytron; from tissue; host or cells: pancreas membranes of male Dunkin Hartley guinea-pigs
Sequence (Q63931 whole entry): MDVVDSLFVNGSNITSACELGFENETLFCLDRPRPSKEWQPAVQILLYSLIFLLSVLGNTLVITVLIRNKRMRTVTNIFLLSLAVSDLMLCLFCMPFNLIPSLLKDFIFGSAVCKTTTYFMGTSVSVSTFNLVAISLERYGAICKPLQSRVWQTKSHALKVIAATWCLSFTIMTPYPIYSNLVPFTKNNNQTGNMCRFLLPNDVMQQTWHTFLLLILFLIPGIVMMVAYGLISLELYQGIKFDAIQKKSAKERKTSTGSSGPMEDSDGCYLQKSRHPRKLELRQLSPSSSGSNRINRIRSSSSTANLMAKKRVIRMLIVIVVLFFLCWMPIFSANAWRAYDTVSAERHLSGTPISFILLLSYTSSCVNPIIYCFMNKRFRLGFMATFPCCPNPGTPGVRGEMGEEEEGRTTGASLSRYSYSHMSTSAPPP
Assay: CCKA radioligand binding assay in guinea-pig pancreas membranes ([125I]-CCK8(S))
Settings: PD134,308 present, 150 minutes at 21±3°, read-out: CCKA pKi (converted)
measuredEndpoint: log10 Ki (log10 of the value in µM)
Friendly reminder: values = log10 of Ki, unit µM.

The following molecules have reported results that may help.
Item under review: "O=C(NCC12CC3CC(CC(C3)C1)C2)c1cc2nc[nH]c2cc1C(=O)N[C@@H](Cc1ccccc1)C(=O)Nc1cc(C=NO)cc(C=NO)c1" . Reported log10 Ki?
-0.30

Name the reported log10 Ki value associated with the molecule "COC(=O)c1cc(NC(=O)[C@H](Cc2ccccc2)NC(=O)c2cc3[nH]cnc3cc2C(=O)NCC23CC4CC(CC(C4)C2)C3)cc(C(=O)OC)c1"
0.50

Record request: log10 Ki value, item "COC(=O)[C@H]1CCCN1C(=O)c1cc2ccccc2cc1C(=O)NCC12CC3CC(CC(C3)C1)C2"
0.20

Data request, read-out log10 Ki, for O=C(O)c1cc(NC(=O)[C@H](Cc2ccccc2)NC(=O)C2Cc3[nH]cnc3CN2C(=O)NCC23CC4CC(CC(C4)C2)C3)cc(C(=O)O)c1 (mixture of isomers)
0.70

log10 Ki lookup needed for "O=C(NCC12CC3CC(CC(C3)C1)C2)c1cc2nc[nH]c2cc1C(=O)N[C@@H](Cc1ccccc1)C(=O)Nc1cccc(-c2nn[nH]n2)c1" , thanks.
-0.40

Which log10 Ki is listed for O=C(O)c1cc(NC(=O)[C@H](Cc2ccccc2)NC(=O)C2Cc3ccccc3CN2C(=O)NCC23CC4CC(CC(C4)C2)C3)cc(C(=O)O)c1 (stereo partly drawn) ?
0.30

Find the recorded log10 Ki belonging to "O=C(O)c1cc(NC(=O)[C@H](Cc2ccccc2)NC(=O)c2cc3[nH]cnc3cc2C(=O)NCc2ccc3ccccc3c2)cc(C(=O)O)c1" and report it.
0.60

Fill in the blank: the reported log10 Ki of "O=C(O)c1cc(NC(=O)[C@H](Cc2ccccc2F)NC(=O)c2cc3[nH]ccc3cc2C(=O)NCC23CC4CC(CC(C4)C2)C3)cc(C(=O)O)c1" is ____.
0.40

Looking for the measured log10 Ki of "O=C(O)c1cc(NC(=O)[C@@H]2Cc3ccccc3CN2C(=O)c2cc3[nH]cnc3cc2C(=O)NCC23CC4CC(CC(C4)C2)C3)cc(C(=O)O)c1" , can you help?
0.90

I have this molecule here, "O=C(O)c1cc(NC(=O)[C@H](Cc2ccccc2C(F)(F)F)NC(=O)c2cc3[nH]cnc3cc2C(=O)NCC23CC4CC(CC(C4)C2)C3)cc(C(=O)O)c1" , and I need its recorded log10 Ki.
0.90

Turning now to a further record.
// query log10 Ki value for entry "CN(C(=O)[C@H](Cc1ccccc1)NC(=O)c1cc2[nH]cnc2cc1C(=O)NCC12CC3CC(CC(C3)C1)C2)c1cc(C(=O)O)cc(C(=O)O)c1"
0.80

* * *

Molecular target: gastrin (Rattus norvegicus, UniProt P30553)
Construct: The stomach was lowered into a jacketed organ bath containing 40 ml of buffered solution; from tissue; host or cells: isolated perfused whole stomach of immature rats (ca. 21 days old)
Sequence (P30553 whole entry, the tested form may be a part): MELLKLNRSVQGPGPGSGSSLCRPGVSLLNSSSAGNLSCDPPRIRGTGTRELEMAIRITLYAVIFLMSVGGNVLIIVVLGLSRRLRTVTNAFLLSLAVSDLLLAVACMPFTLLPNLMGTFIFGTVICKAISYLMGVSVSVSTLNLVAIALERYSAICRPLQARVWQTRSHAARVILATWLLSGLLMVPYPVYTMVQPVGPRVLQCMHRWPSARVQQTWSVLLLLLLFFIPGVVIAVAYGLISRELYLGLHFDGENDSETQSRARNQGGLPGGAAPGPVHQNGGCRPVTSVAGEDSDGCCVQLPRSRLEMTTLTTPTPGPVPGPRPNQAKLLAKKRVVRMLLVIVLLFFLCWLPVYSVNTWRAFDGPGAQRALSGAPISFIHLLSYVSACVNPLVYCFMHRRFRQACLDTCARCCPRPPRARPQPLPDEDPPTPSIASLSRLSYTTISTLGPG
Test: gastrin antagonist activity in an immature rat stomach assay (pentagastrin-stimulated acid secretion)
Settings: cumulative pentagastrin dose-response curves after 60 min with drug, read-out: Gastrin pKB (converted)
# log10 of Kb listing for each entry below
log10 Kb, nM

Example molecules with recorded log10 of Kb:
Requested field: log10 of Kb. Item: O=C(O)CNC(=O)[C@H]1CCCN1C(=O)c1cc2ccccc2cc1C(=O)NCC12CC3CC(CC(C3)C1)C2 [Example 11]
2.40

Record request: log10 of Kb value, item O=C(O)c1cc(NC(=O)[C@H](Cc2ccc(O)cc2)NC(=O)c2cc3[nH]cnc3cc2C(=O)NCC23CC4CC(CC(C4)C2)C3)cc(C(=O)O)c1 [Example 60]
0.90

Can you share its log10 of Kb? I mean this molecule: O=C(O)c1cc(NC(=O)[C@H](Cc2ccccc2)NC(=O)C2Cc3ccccc3CN2C(=O)NCC23CC4CC(CC(C4)C2)C3)cc(C(=O)O)c1 (stereo partly drawn) [Example 57]
1.30

Request the reported log10 of Kb associated with CN(CC12CC3CC(CC(C3)C1)C2)C(=O)c1cc2ccccc2cc1C(=O)N1CCC[C@@H]1C(=O)NCC(=O)O [Example 14]
2.50

Continuing:
Return reported log10 of Kb; argument: O=C(NCC12CC3CC(CC(C3)C1)C2)c1cc2nc[nH]c2cc1C(=O)N[C@@H](Cc1ccccc1)C(=O)Nc1cc(C=NO)cc(C=NO)c1 [Example 118]
2.30

# get_value(readout='log10 of Kb', item= O=C(O)c1cc(NC(=O)[C@@H](Cc2ccccc2)NC(=O)c2cc3ccccc3cc2C(=O)NCC23CC4CC(CC(C4)C2)C3)cc(C(=O)O)c1 [Example 23] )
1.60

Name the recorded log10 of Kb for CN(C(=O)[C@H](Cc1ccccc1)NC(=O)c1cc2[nH]cnc2cc1C(=O)NCC12CC3CC(CC(C3)C1)C2)c1cc(C(=O)O)cc(C(=O)O)c1 [Example 73] .
1.80

Using the record for O=C(O)c1cc(NC(=O)[C@H](Cc2ccccc2)NC(=O)c2cc3c(cc2C(=O)NCC24CC5CC(CC(C5)C2)C4)[nH]c2ccccc23)cc(C(=O)O)c1 [Example 51] , report its log10 of Kb.
1.40

If you can, please state the reported log10 of Kb value of Cn1ccc2cc(C(=O)NCC34CC5CC(CC(C5)C3)C4)c(C(=O)N[C@@H](Cc3ccccc3)C(=O)Nc3cc(C(=O)O)cc(C(=O)O)c3)cc21 [Example 37] .
0.60

Which value of log10 of Kb has been reported for O=C(NCC12CC3CC(CC(C3)C1)C2)c1cc2nc[nH]c2cc1C(=O)N[C@@H](Cc1ccccc1)C(=O)Nc1cc(-c2nn[nH]n2)cc(-c2nn[nH]n2)c1 [Example 80] in the records?
0.80

Give its log10 of Kb value. Item: O=C(O)c1cc(NC(=O)[C@H](Cc2ccccc2)NC(=O)c2cc3[nH]cnc3cc2C(=O)NCC2CCCCCC2)cc(C(=O)O)c1 [Example 62]
0.80

Consider the molecule shown here: O=C(O)c1cc(NC(=O)[C@H](Cc2ccccc2)NC(=O)c2cc3[nH]ccc3cc2C(=O)NCC23CC4CC(CC(C4)C2)C3)cc(C(=O)O)c1 [Example 26] What is its recorded log10 of Kb?
-0.30

* * *

Target: CCKB receptor (Mus musculus, UniProt P56481)
Construct: The cortex was dissected, weighed and homogenised in 40ml ice-cold buffer; tissue Charles River (supplier of the CD1 mice); host or cells: cerebral cortex membranes of male CD1 mice
Sequence (P56481 1-453): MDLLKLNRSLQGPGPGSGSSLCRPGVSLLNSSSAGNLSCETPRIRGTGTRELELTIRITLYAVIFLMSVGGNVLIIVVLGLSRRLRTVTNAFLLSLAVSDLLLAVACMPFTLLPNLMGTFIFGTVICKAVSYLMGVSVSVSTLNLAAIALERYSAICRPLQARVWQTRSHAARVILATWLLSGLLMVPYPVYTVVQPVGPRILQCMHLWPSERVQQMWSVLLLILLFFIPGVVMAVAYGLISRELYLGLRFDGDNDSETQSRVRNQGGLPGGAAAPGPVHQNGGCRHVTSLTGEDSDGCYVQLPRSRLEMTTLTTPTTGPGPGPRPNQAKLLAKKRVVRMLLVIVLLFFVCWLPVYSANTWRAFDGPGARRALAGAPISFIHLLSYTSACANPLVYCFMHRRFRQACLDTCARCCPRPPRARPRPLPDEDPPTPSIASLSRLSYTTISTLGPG
Test: CCKB receptor radioligand binding assay in mouse cortical membranes ([125I]-CCK8S)
Settings: [125I]-CCK8S 200 pM, 150 min at 21±3°, read-out: CCKB pKi (converted)
measuredEndpoint: Ki
Answer format: number, then unit.

Find Ki (CCKB receptor (Mus musculus, UniProt P56481)) for the entry O=C(O)c1cc(NC(=O)[C@H](Cc2ccccc2)NC(=O)c2cc3cc[nH]c3cc2C(=O)NCC2CCC(O)CC2)cc(C(=O)O)c1 (single isomer, unassigned) [Example 109]
200 nM

Lookup: Ki / CCKB receptor (Mus musculus, UniProt P56481) / CN(C(=O)c1cc2[nH]cnc2cc1C(=O)NCC12CC3CC(CC(C3)C1)C2)[C@@H](Cc1ccccc1)C(=O)Nc1cc(C(=O)O)cc(C(=O)O)c1 [Example 86]
31.6 nM

Reported Ki for CCKB receptor (Mus musculus, UniProt P56481), given O=C(O)c1cc(NC(=O)[C@H](Cc2ccccc2)NC(=O)c2cc3[nH]cnc3cc2C(=O)NCc2ccc3ccccc3c2)cc(C(=O)O)c1 [Example 130] ?
25.1 nM

Query Ki on CCKB receptor (Mus musculus, UniProt P56481) for O=C(NCC12CC3CC(CC(C3)C1)C2)c1cc2nc[nH]c2cc1C(=O)N[C@@H](Cc1ccccc1)C(=O)Nc1ccc(F)cc1 [Example 68]
1260 nM

Item: O=C(NCC12CC3CC(CC(C3)C1)C2)c1cc2cc[nH]c2cc1C(=O)N[C@@H](Cc1ccccc1F)C(=O)Nc1cc(-c2nn[nH]n2)cc(-c2nn[nH]n2)c1 [Example 98] Test system: CCKB receptor (Mus musculus, UniProt P56481) Read-out: Ki Value: ?
3.98 nM

Requested read-out Ki, target or system CCKB receptor (Mus musculus, UniProt P56481), entry Cn1ccc2cc(C(=O)NCC34CC5CC(CC(C5)C3)C4)c(C(=O)N[C@@H](Cc3ccccc3)C(=O)Nc3cc(C(=O)O)cc(C(=O)O)c3)cc21 [Example 37]
3.98 nM

From: patent US5795907A
